Values were extracted from patent US5340833A.

molecular target: human plasmin (Homo sapiens, UniProt P00747); construct: plasmin, the potent general protease produced by cleavage of plasminogen by either urokinase or tPA; purchased American Diagnostica; test: Plasmin Assay; type: biochemical; settings: ratio with respect to urokinase indirect plasminogen-linked IC50; larger = greater specificity for urokinase
Sequence (P00747 581-810 limits assumed): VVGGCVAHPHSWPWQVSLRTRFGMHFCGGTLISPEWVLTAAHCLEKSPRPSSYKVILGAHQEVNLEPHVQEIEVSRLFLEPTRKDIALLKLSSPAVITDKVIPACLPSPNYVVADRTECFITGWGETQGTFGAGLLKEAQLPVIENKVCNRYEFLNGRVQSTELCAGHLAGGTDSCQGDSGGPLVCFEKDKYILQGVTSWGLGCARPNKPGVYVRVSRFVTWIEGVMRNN
Sequence (P00747 97-580 limits assumed): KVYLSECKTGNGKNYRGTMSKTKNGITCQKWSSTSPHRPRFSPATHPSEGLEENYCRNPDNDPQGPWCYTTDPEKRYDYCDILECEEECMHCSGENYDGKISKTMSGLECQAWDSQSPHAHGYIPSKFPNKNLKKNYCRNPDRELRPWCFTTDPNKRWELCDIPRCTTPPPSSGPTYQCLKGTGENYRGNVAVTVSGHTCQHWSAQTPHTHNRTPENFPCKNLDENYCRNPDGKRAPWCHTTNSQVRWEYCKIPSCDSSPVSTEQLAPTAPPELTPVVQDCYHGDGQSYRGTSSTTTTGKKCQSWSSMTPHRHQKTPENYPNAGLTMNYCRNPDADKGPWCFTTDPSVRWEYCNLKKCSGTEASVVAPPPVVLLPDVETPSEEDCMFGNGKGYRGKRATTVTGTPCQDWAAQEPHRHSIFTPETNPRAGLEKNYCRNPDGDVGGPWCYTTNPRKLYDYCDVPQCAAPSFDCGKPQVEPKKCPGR
measurementType: PLM/uPA ratio

Cl.N=C(N)c1cc2ccc3ccccc3c2s1 : > 50
Cl.N=C(N)c1cc2ccccc2s1 : > 200
Cl.N=C(N)c1cc2c(CO)cccc2s1 : ≥ 1500
Cl.N=C(N)c1cc2ccsc2s1 : ≥ 1000
Cl.N=C(N)c1cc2cc(Br)ccc2s1 : ≥ 4000
Cl.N=C(N)c1cc2c(-c3ccc(-c4ccccc4)o3)cccc2s1 : ≈ 500

Can you share its PLM/uPA ratio? I mean this compound: Cl.N=C(N)c1cc2cc(I)ccc2s1
≥ 5000

Can you share its PLM/uPA ratio? I mean this compound: COc1ccc2sc(C(=N)N)cc2c1Br.Cl
≥ 750

Can you share its PLM/uPA ratio? I mean this compound: Cl.N=C(N)c1cc2cc(-c3ccccc3)ccc2s1
≥ 10000
